target: T1, Dimeric Mouse Ang-2FD conjugated to human IgG1 (mouse (Mus musculus); human); experiment: competition ELISA, 16.67 nM Ab, coated hTie-2-mFc
T1 construct: also called Mouse Ang-2FD-hFc
Catalogue of Percent Blocking of Ang-2FD Binding to Tie-2 values
All answers are understood in %, so give the number only.

Binder	Unit of measure	Result number
H2M730N (antibody, V domains shown) VH: EVQLVESGGGLVQPGGSLRLSCAASGFAFRSYWMTWVRQAPGKGLEWVANIQQDGNDKYYVDSVKGRFTISRDNAKNSLYLQMNSLRAEDTAVYYCARDTGIAEAGPFDYWGQGTLVTVSS VL: DIQMTQSPSTLSASVGDRVSITCRASQTIISWLAWYQQKPGKAPRLLIYKASSLESGVPSRFSGSGSGTEFTLTINSLQPDDFATYYCQQYNRYWTFGQGTKVEIK	%	55
H1M724N (antibody, V domains shown) VH: QVQLVESGGGVVQPGRSLRLSCAASGFTLSNYGMHWVRQAPGKGLEWVAVIWHDGSNTYYADSVKGRFTISRDNSKNTLYLQMNSLRAEDTAVYYCTREGLDFWSGYYPNWFDPWGQGTLVTVSS VL: DIQMTQSPSSLSASVGDRVTITCRASQGIRNDLGWYQQKPGKAPKRLIYAASNLQGGVPSRFSGSGSGTEFTLTISSLQPEDFAAYYCLQHNIYPLTFGGGTKVEIK	%	96.6
H1M728N (antibody, V domains shown) VH: EVQLVESGGDLVQPGGSLRLSCTASGFTFSKYWMTWVRQAPGRGLEWVANIKEDGNEKYFLDSVKGRFTISRDNAKDLLFLQMNSLRGEDTAVYYCVRDRGIEVAGPFDYWGQGTLVTVSS VL: DIQMTQSPSTLSASVGDRVTVTCRASQTIINWLAWYQQKPGKAPKLLISKASSLESGVPSRFSGSGSGTEFTLTISSLQPDDFATYYCQQYNRYWTFGQGTMVEIK	%	83.9

Look up Percent Blocking of Ang-2FD Binding to Tie-2 for this binder: H2M742N (antibody, V domains shown) VH: DVQLLESGGDLVQPGGSLRLSCEASGFTFRNYVMIWVRQAPGKGLEWVSGISNSGGTTHYTDSVKGRFTISRDNSKNTLYLQINSLRAEDTAVYYCAKGYLDTSLIEGNWFDPWGQGTLVTVSS VL: NIVMTQSPLSLPVTPGEPASISCRSSQSLLHSNGFNYLNWFLQKPGQSPQLLIYLGSNRASGVPDKFSGSGSGTDFTLNINRVEAEDVGIYFCMQTLQTPLTFGGGTKVEIK 98.6
